Sourced from ChEMBL document CHEMBL4513216

// reported cytotoxicity at 10 µM per item
- Measurement Notes: Toxicity liver stage against HepG2, at 10uM
- Type: cell-based
- Parameters: test concentration 10 uM, cell line HepG2-A16-CD81EGFP
- Experimental Parameters: human, HepG2-A16-CD81EGFP cells; read-out: INHIBITION
Use % as the unit, but write only the number.

Solved cases below.
compound="CCCSc1ncc(C2CC(=O)NCc3nc4ccccn4c32)cn1 (stereo not drawn)" readout_value=-6.53
compound=Cc1cccc(CN2C[C@H]3CCC[C@@]3(COCc3csc(C)n3)C2)n1 readout_value=14.3
compound=Cc1nnc([C@H]2CC[C@@H]3[C@@H](CCN3Cc3c(C)noc3C)O2)o1 readout_value=-2.26
compound="O=C(NC1CC(=O)N(Cc2cccc(F)c2)C1)c1ccncc1 (stereo not drawn)" readout_value=-7.41
compound=CC(C)CN1Cc2c(C(=O)NC3CC3)ncn2-c2ccccc2S1(=O)=O readout_value=-77.6

Exam item: Sample c1cncc(N2CC[C@@H]3CN(CC4CC4)C[C@@H]3C2)c1 — what was its cytotoxicity at 10 µM?
Marked response: -4.74

Exam item: Sample CC(C)OCCNC1(c2ccc(F)cc2)CCOCC1 — what was its cytotoxicity at 10 µM?
Marked response: -4.78

Exam item: Sample Cc1noc(C)c1-c1n[nH]c2c1CN(S(=O)(=O)c1cccnc1)CC2 — what was its cytotoxicity at 10 µM?
Marked response: -11

Exam item: Sample Cc1ccc(CNc2cc3c(cc2Cl)NC(=O)CO3)cc1C — what was its cytotoxicity at 10 µM?
Marked response: 0.651

Exam item: Sample Cc1nc(N2CCCN(c3ncccn3)CC2)c2cnn(C)c2n1 — what was its cytotoxicity at 10 µM?
Marked response: 0.977

Exam item: Sample CCOCCn1c(=O)[nH]c2cc(C(=O)N(C)Cc3nc(C)c[nH]3)ccc21 — what was its cytotoxicity at 10 µM?
Marked response: 6.09

Exam item: Sample CCN(CC)c1nc2sc(C(=O)N3CCNC(=O)C3)cc2s1 — what was its cytotoxicity at 10 µM?
Marked response: -4.29
